# tested.target: T1, CEACAM1 (Sino Biological) (human, UniProt P13688 35-428, limits assumed)
# T1 construct: may be the same as CEACAM1-HIS; also called hCEACAM1; biotinylated soluble CEACAM1
# T1 sequence: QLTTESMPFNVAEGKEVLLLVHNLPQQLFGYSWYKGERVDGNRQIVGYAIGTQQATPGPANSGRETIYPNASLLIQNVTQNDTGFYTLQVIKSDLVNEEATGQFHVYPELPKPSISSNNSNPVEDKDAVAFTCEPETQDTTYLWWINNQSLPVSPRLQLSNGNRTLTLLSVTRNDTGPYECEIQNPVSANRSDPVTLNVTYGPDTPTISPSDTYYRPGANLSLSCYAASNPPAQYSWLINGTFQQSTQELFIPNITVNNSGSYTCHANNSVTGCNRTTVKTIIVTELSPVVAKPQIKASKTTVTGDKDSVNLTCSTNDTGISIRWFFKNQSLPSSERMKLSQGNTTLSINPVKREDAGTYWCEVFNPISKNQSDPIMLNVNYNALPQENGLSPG
# procedure.text: SPR single-cycle
experimental.endpoint: Kd (nM)
Numbers only, in nM.

Would you mind giving Kd for every binder in the list below?
1. Parent VH/L4 #1 (antibody, IgG4, V domains shown, IgG4 S241P, kappa) VH: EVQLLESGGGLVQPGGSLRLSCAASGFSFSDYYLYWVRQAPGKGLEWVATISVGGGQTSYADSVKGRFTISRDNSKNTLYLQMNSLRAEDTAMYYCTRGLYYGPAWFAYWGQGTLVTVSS VL: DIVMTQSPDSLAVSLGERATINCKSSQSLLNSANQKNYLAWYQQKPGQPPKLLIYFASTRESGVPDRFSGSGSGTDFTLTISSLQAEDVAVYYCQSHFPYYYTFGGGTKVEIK
2. He17/L18 (antibody, IgG4, V domains shown, IgG4 S241P, kappa) VH: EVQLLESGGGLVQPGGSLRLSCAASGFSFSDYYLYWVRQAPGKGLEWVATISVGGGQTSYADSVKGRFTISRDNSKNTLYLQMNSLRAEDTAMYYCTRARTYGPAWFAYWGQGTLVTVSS VL: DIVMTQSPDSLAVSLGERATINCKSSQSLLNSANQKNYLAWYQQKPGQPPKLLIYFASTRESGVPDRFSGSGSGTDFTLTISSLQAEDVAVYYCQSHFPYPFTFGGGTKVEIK
3. He3/L19 (antibody, IgG4, V domains shown, IgG4 S241P, kappa) VH: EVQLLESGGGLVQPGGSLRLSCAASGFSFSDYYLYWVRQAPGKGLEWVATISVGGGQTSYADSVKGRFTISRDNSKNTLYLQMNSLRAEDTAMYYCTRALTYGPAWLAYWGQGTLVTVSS VL: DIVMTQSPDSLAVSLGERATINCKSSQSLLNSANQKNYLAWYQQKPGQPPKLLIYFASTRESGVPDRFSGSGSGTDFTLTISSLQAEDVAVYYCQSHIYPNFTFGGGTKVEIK

Marked response:
103
98
135
